Test: Part A: single-dose IM injection and IV infusion pharmacokinetic study in healthy human subjects
Type: in vivo
Conditions: human, in vivo, Bioavailability (absolute)
Reported Metric: bioavailability

Incoming: Returns the measured bioavailability for the input compound. Input: CCO/N=C(\C(=O)N[C@@H]1C(=O)N2C(C(=O)[O-])=C(Sc3nc(-c4cc[n+](C)cc4)cs3)CS[C@H]12)c1nsc(N)n1 [Ceftaroline, ceftaroline]
Outgoing: ~100%

---

Assay: Part A: single-dose IM injection and IV infusion pharmacokinetic study in healthy human subjects
Assay type: in vivo
Settings: human, in vivo, im, 600 mg, AUC0-t
Reported Metric: AUC0-t

Incoming: Fill in: AUC0-t of CCO/N=C(\C(=O)N[C@@H]1C(=O)N2C(C(=O)[O-])=C(Sc3nc(-c4cc[n+](C)cc4)cs3)CS[C@H]12)c1nsc(N)n1 is ___
Outgoing: 47500 ng·h/mL

---

Test: Part A: single-dose IM injection and IV infusion pharmacokinetic study in healthy human subjects
Type: in vivo
Details: human, in vivo, iv, T1/2
Reported Metric: half-life
Phrase the answer as number then unit, nothing more needed.

Incoming: Name the recorded half-life for CCO/N=C(\C(=O)N[C@@H]1C(=O)N2C(C(=O)[O-])=C(Sc3nc(-c4cc[n+](C)cc4)cs3)CS[C@H]12)c1nsc(N)n1 .
Outgoing: 2.13 h

---

Assay: One hour kinetic solubility in acetic acid/sodium acetate ion mixtures
Assay type: physicochemical
Conditions: USP buffer with acetic acid/sodium acetate, 25 °C, pH 8.9, aqueous buffer, thermodynamic from solid, pH 8.9; acetic acid/sodium acetate 0.5 M; 25° C.; read-out: Solubility at 1 hr
Reported Metric: solubility at 1 h
Your answer should be a number followed by the unit of measure.

Incoming: Entry CC(=O)[O-].CCO/N=C(\C(=O)N[C@@H]1C(=O)N2C(C(=O)O)=C(Sc3nc(-c4cc[n+](C)cc4)cs3)CS[C@H]12)c1nsc(NP(=O)(O)O)n1.O [ceftaroline fosamil] has what solubility at 1 h?
Outgoing: 50 mg/mL

---

Assay: One hour kinetic solubility in acetic acid/sodium acetate ion mixtures
Assay type: physicochemical
Details: acetic acid/sodium acetate buffer, 25 °C, pH 6.7, aqueous buffer, thermodynamic from solid, pH 6.7; acetic acid/sodium acetate 0.1 M; 25° C.; read-out: Solubility at 1 hr
Reported Metric: solubility at 1 h (mg/mL)
One number for each entry, in mg/mL.

Incoming: Given CC(=O)[O-].CCO/N=C(\C(=O)N[C@@H]1C(=O)N2C(C(=O)O)=C(Sc3nc(-c4cc[n+](C)cc4)cs3)CS[C@H]12)c1nsc(NP(=O)(O)O)n1.O , state its recorded solubility at 1 h.
Outgoing: 31

---

Assay: Part A: single-dose IM injection and IV infusion pharmacokinetic study in healthy human subjects
Type: in vivo
Settings: human, in vivo, im, 600 mg, Tmax
Reported Metric: Tmax
Note: a bare number is incomplete; add the unit.

Incoming: Recorded Tmax for CCO/N=C(\C(=O)N[C@@H]1C(=O)N2C(C(=O)[O-])=C(Sc3nc(-c4cc[n+](C)cc4)cs3)CS[C@H]12)c1nsc(N)n1 , please?
Outgoing: 2 h
